Reference source: BigSolDB 2.1

test_conditions: in benzene, 318.18 K
reported_metric: solubility (mole fraction)

query: Which measured solubility (mole fraction) value corresponds to O=P1(O)OCC2(CO1)COP(=O)(O)OC2 (stereo unspecified) ?
result: 0.00088

---

test_conditions: in dichloromethane, 313.16 K
reported_metric: solubility (mole fraction)

query: Could you tell me which solubility (mole fraction) is on file for O=C(O)CCP(=O)(O)c1ccccc1 ?
result: 0.00149

---

test_conditions: in water, 333.45 K
reported_metric: solubility (mole fraction)
Lab note: record the figure alone, no unit after it.

query: Item under review: O=P1(Oc2ccccc2)OCC2(CO1)COP(=O)(Oc1ccccc1)OC2 (stereo unspecified) . Reported solubility (mole fraction)?
result: 0.00116

---

test_conditions: in benzene, 308.37 K
reported_metric: solubility (mole fraction)
// print number alone

query: Report solubility (mole fraction) for O=P1(Oc2ccccc2)OCC2(CO1)COP(=O)(Oc1ccccc1)OC2 (stereo unspecified) please.
result: 0.00127

---

test_conditions: in acetone, 288.15 K
reported_metric: solubility (mole fraction)
Respond with the number and no other words.

query: Field request: solubility (mole fraction) | item: O=P(O)(CO)c1ccccc1
result: 0.0013

---

test_conditions: in cyclohexane, 337.65 K
Recorded solubility (mole fraction) by entry

1) COc1ccc(P(c2ccc(OC)cc2)c2ccc(OC)cc2)cc1    0.00848

Consider the record given below.
query: Dear colleague, I am looking for the recorded solubility (mole fraction) of the following compound: COc1ccc(P(=O)(c2ccc(OC)cc2)c2ccc(OC)cc2)cc1
result: 0.00806

---

test_conditions: in ethyl acetate, 308.17 K
reported_metric: solubility (mole fraction)

query: Can you look up the measured solubility (mole fraction) of O=P1(O)OCC2(CO1)COP(=O)(O)OC2 (stereo unspecified) for me?
result: 0.00129

---

test_conditions: in water, 338.15 K
reported_metric: solubility (mole fraction)
The answer should be a number; do not append a unit.

query: Need solubility (mole fraction) of O=P(O)(CO)c1ccccc1 , thanks.
result: 0.0966

---

test_conditions: in ethyl acetate, 293.25 K
reported_metric: solubility (mole fraction)
Enter a number only.

query: Request the reported solubility (mole fraction) associated with O=P1(Oc2ccccc2)OCC2(CO1)COP(=O)(Oc1ccccc1)OC2 (stereo unspecified)
result: 0.00107

---

test_conditions: in 2-ethoxyethanol, 328.16 K
solubility (mole fraction) values for the compounds below.
Answer as a number with no unit attached.

1) O=C(O)CCP(=O)(O)c1ccccc1    0.0937

query: For the compound shown here, O=P(O)(CO)c1ccccc1 , give the reported solubility (mole fraction).
result: 0.0937

---

test_conditions: in water, 363.36 K
reported_metric: solubility (mole fraction)
Hey, just send me the number, nothing else.

query: Suppose we examine the molecule O=P1(Oc2ccccc2)OCC2(CO1)COP(=O)(Oc1ccccc1)OC2 (stereo unspecified) ; what solubility (mole fraction) value has been reported?
result: 0.00477

---

test_conditions: in benzene, 348.35 K
reported_metric: solubility (mole fraction)
Just the number, please, no unit after it.

query: Any idea what its solubility (mole fraction) is? The compound is O=P1(Oc2ccccc2)OCC2(CO1)COP(=O)(Oc1ccccc1)OC2 (stereo unspecified)
result: 0.00147

---

test_conditions: in toluene, 293.16 K
reported_metric: solubility (mole fraction)
Please reply with the number alone, leaving off any unit.

1) O=P(O)(CO)c1ccccc1    0.0011
2) COc1ccc(P(=O)(c2ccc(OC)cc2)c2ccc(OC)cc2)cc1    0.00036
3) O=P1(O)OCC2(CO1)COP(=O)(O)OC2 (stereo not given)    0.00046
4) COc1ccc(P(c2ccc(OC)cc2)c2ccc(OC)cc2)cc1    0.00035

query: Consider the compound shown here: O=C(O)CCP(=O)(O)c1ccccc1 What is its recorded solubility (mole fraction)?
result: 0.00051

---

test_conditions: in chloroform, 303.25 K
reported_metric: solubility (mole fraction)

query: Report solubility (mole fraction) for O=P1(Oc2ccccc2)OCC2(CO1)COP(=O)(Oc1ccccc1)OC2 (stereo unspecified) please.
result: 0.00436

---

test_conditions: in 2-ethoxyethanol, 368.16 K
reported_metric: solubility (mole fraction)
Keep the answer to the number alone.

query: For the compound shown here, O=P1(Oc2ccccc2)OCC2(CO1)COP(=O)(Oc1ccccc1)OC2 (stereo unspecified) , give the reported solubility (mole fraction).
result: 0.0319

---

test_conditions: in acetic acid, 333.15 K
reported_metric: solubility (mole fraction)
API doc: respond with a numeric literal and nothing else, no unit.

query: Returns the measured solubility (mole fraction) for the input molecule. Input: O=C(O)CCP(=O)(O)c1ccccc1
result: 0.0249

---

test_conditions: in cyclohexane, 288.15 K
reported_metric: solubility (mole fraction)
Form: value (number only, do not type unit).

query: Give its solubility (mole fraction) value. Item: O=P(O)(CO)c1ccccc1
result: 0.001

---

test_conditions: in ethanol, 333.16 K
reported_metric: solubility (mole fraction)
Please respond with just the number, no unit label.

query: Give its solubility (mole fraction) value. Item: O=P1(Oc2ccccc2)OCC2(CO1)COP(=O)(Oc1ccccc1)OC2 (stereo unspecified)
result: 0.00383

---

test_conditions: in chloroform, 288.15 K
reported_metric: solubility (mole fraction)

query: Which solubility (mole fraction) is listed for O=C(O)CCP(=O)(O)c1ccccc1 ?
result: 0.00021

---

test_conditions: in benzene, 323.24 K
reported_metric: solubility (mole fraction)
No unit in the answer, please; the number alone is enough.

query: Query (compound): O=P1(Oc2ccccc2)OCC2(CO1)COP(=O)(Oc1ccccc1)OC2 (stereo unspecified) ; field requested: solubility (mole fraction)
result: 0.00136

---

test_conditions: in cyclohexane, 308.85 K
reported_metric: solubility (mole fraction)
Please give only the number in your answer, with no unit.

query: What value of measured solubility (mole fraction) is listed for COc1ccc(P(c2ccc(OC)cc2)c2ccc(OC)cc2)cc1 ?
result: 0.00107

---

test_conditions: in water, 298.25 K
reported_metric: solubility (mole fraction)
Lab note: record just the number, no unit beside it.

query: Quick one: solubility (mole fraction) of O=C(O)CCP(=O)(O)c1ccccc1 ?
result: 0.00178

---

test_conditions: in benzene, 333.17 K
reported_metric: solubility (mole fraction)

query: Recorded solubility (mole fraction) for O=P1(O)OCC2(CO1)COP(=O)(O)OC2 (stereo unspecified) , please?
result: 0.00146

---

test_conditions: in ethanol, 303.15 K
reported_metric: solubility (mole fraction)
Hey, just send me the number, nothing else.

query: Which solubility (mole fraction) reading was recorded for the molecule O=P1(Oc2ccccc2)OCC2(CO1)COP(=O)(Oc1ccccc1)OC2 (stereo unspecified) ?
result: 0.00157

---

test_conditions: in methanol, 308.17 K
reported_metric: solubility (mole fraction)
Give the figure only, with no unit attached.

query: // query solubility (mole fraction) value for entry O=P1(Oc2ccccc2)OCC2(CO1)COP(=O)(Oc1ccccc1)OC2 (stereo unspecified)
result: 0.00365

---

test_conditions: in THF, 303.49 K
reported_metric: solubility (mole fraction)
Just the number.

query: # solubility (mole fraction) lookup, item O=P1(Oc2ccccc2)OCC2(CO1)COP(=O)(Oc1ccccc1)OC2 (stereo unspecified)
result: 0.00727

---

test_conditions: in acetone, 307.95 K
reported_metric: solubility (mole fraction)
Form field (numeric): enter value without unit.

query: Which value of solubility (mole fraction) has been reported for O=P1(O)OCC2(CO1)COP(=O)(O)OC2 (stereo unspecified) in the records?
result: 0.0049

---

test_conditions: in 2-ethoxyethanol, 313.23 K
reported_metric: solubility (mole fraction)

query: Name the reported solubility (mole fraction) value associated with the compound O=P1(Oc2ccccc2)OCC2(CO1)COP(=O)(Oc1ccccc1)OC2 (stereo unspecified)
result: 0.00637

---

test_conditions: in toluene, 323.37 K
reported_metric: solubility (mole fraction)
Number only, no unit.

query: Entry O=P1(Oc2ccccc2)OCC2(CO1)COP(=O)(Oc1ccccc1)OC2 (stereo unspecified) : reported solubility (mole fraction) = ?
result: 0.00352

---

test_conditions: in 2-ethoxyethanol, 293.24 K
reported_metric: solubility (mole fraction)
Write the value as a bare number.

query: Which solubility (mole fraction) reading was recorded for the molecule O=P1(Oc2ccccc2)OCC2(CO1)COP(=O)(Oc1ccccc1)OC2 (stereo unspecified) ?
result: 0.00325

---

test_conditions: in diethyl ether, 303.14 K
reported_metric: solubility (mole fraction)
Write the number on its own, no unit after it.

query: What does the record list as solubility (mole fraction) for O=P(O)(CO)c1ccccc1 ?
result: 0.00212

---

test_conditions: in toluene, 328.16 K
reported_metric: solubility (mole fraction)
Please state the value as a number alone, without comment.

1) O=P1(O)OCC2(CO1)COP(=O)(O)OC2 (configuration not stated)    0.00176

Moving on to the next compound.
query: Return reported solubility (mole fraction); argument: O=C(O)CCP(=O)(O)c1ccccc1
result: 0.00138

---

test_conditions: in THF, 293.53 K
reported_metric: solubility (mole fraction)
# print the numeric value only

query: Entry under review: O=P1(Oc2ccccc2)OCC2(CO1)COP(=O)(Oc1ccccc1)OC2 (stereo unspecified) . Reported solubility (mole fraction)?
result: 0.00524
